Each entry below carries its recorded log10 solubility kinetic.
conditions: buffer; pH 7.4; 200.0 µM
A value of 2 here means solubility kinetic of 100 in µg/mL, since values are log10.

# example entries with known answers
# Compound, log10 solubility kinetic
records = [
    ("O=C1c2ccccc2C(=O)N1CCc1ccccc1", 0.89),
    ("CCCn1cnc2scc(-c3ccc(C)c(C)c3)c2c1=O", 0.04),
    ("COc1cccc(CN2CCSCC2)c1OC", 1.38),
    ("Cc1ccc(C)c(OCC(=O)O/N=C(\\N)c2cccc([N+](=O)[O-])c2)c1", 0.08),
    ("Cc1cc(C)nc(N(C#N)Cc2cccc(Cl)c2)n1", 1.37),
    ("COc1ccc(NC(C)=O)cc1C#N", 1.39),
    ("O=C(c1ccccc1)N1C(=O)C(c2ccccc2)Oc2ccccc21 (configuration not stated)", 0.49),
    ("N#Cc1c(NCCCO)nc(NCc2ccccc2)c2c1CCN(Cc1ccccc1)C2", 0.89),
    ("COc1ccccc1-n1cc(-c2ccc([N+](=O)[O-])cc2)[nH]c1=S", -0.52),
]

From here, focus on the item given below.
// field: log10 solubility kinetic; key: COc1ccc(CC(=O)O/N=C(\N)c2ccccc2)cc1OC ; value = 1.57

----------
conditions: buffer; pH 7.4; 200.0 µM
solubility kinetic values, listed per item

Below are worked cases with known answers.
# Molecule, solubility kinetic
records = [
    ("O=C(O)CCc1[nH]c2ccccc2c1Sc1ccccc1", "> 44.6 µg/mL"),
    ("O=C(O)c1cncc(C#Cc2ccccc2)c1", "> 33.5 µg/mL"),
    ("COc1ccc(/C(C)=N/N2C(C)CCCC2C)c(OC)c1 (configuration not stated)", "> 43.6 µg/mL"),
    ("Cc1ccc2[nH]c(CCN(C)C)c(CN3CCOCC3)c2c1", "> 45.2 µg/mL"),
    ("COCCNC(=O)Nc1ccc(F)cc1", "> 31.8 µg/mL"),
]

Record O=C(O)CNS(=O)(=O)c1ccc2[nH]c(=O)c(=O)[nH]c2c1 . Reported solubility kinetic: > 44.9 µg/mL

The molecule identified as CCNC(=S)N1CCC(C(N)=O)CC1 registered its solubility kinetic at > 32.3 µg/mL

----------
Catalogue of solubility kinetic readings, one per entry.
conditions: buffer; pH 7.4; 200.0 µM
Only the number, expressed in µg/mL, is required.

# Molecule, Outcome Measure, Endpoint Unit, Reported
rows = [
    ("O=C(NCc1ccc(Cl)cc1)N1CCc2ccccc2C1", "solubility kinetic", "µg/mL", 4.5),
]

In plain terms, O=C(COC(=O)/C=C/c1ccccc1Cl)NCC1CCCO1 (stereo not given) has a documented solubility kinetic of 31.9

The recorded solubility kinetic for Cc1cc[n+](-c2ccccc2)c2ccccc12.[Cl-] is 17.3

----------
conditions: buffer; pH 7.4; 200.0 µM
solubility kinetic listing for selected molecules.
Return type: number; implicit unit µg/mL.

Please review the entries below; each comes with its answer.
# Smiles String, Reported
data = [
    ("C=C(C)CN1CCN(c2ccc(N3C(=O)CCCC3=O)cc2[N+](=O)[O-])CC1", 54),
    ("Cc1occc1C(=O)N(C)Cc1nc(-c2ccccc2)no1", 40.9),
    ("Cc1ccc(C#N)c(SCCN2CCCCC2)n1", 32.4),
]

As a next step, examine the molecule that follows.
The reported value for CCN(CC)CCN(C(=O)c1cc2ccccc2cc1OC)c1nc2ccc(OC)cc2s1.Cl in terms of solubility kinetic is 3.7

Data provenance: PubChem BioAssay AID1996
